# SYSTEM: Luciferin 4-monooxygenase (Photinus pyralis)
# ASSAY_REMARKS: inhibition of purified Photinus pyralis luciferase – biochemical, luminescence, purified enzyme, 2006 set, primary screen (AID 1141);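 note: cell-free assay with purified firefly luciferase at 100 ng per well in PBS; test concentration not given here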
# CONDITION: purified firefly luciferase, SteadyGlo luminescence, 30 min; higher = more signal, called active from +8 up or from −8 down
Consider the following compounds; for each one, report its z-score.
Please reply with the number alone, leaving off any unit.

Query block: Reported z-score for COc1ccc([C@H]2OC[C@@H]3C[C@H](Cc4ccccc4)C(=O)N32)cc1 : what is it?
Result block: -0.0539

Query block: Look up z-score for this compound: Cc1ccccc1C(O)C1C=CC2C(=O)NC(=O)C2N1Nc1ccccn1 (stereo not given)
Result block: -0.792

Query block: Consider the compound C[N+](C)(C)CCCC[C@@H]1NC(=O)[C@@H]2C[C@H](C(=O)NCCCCCCN)[C@H](c3cccc(OCCO)c3)N2C1=O and give its measured z-score.
Result block: -0.583

Query block: Name the recorded z-score for C=C(/C(=C/C[C@H](OC(C)=O)c1ccc(CO)o1)c1cnc2ccccc2c1)C(C)C .
Result block: -1.41

Query block: Sample CC(C)[Si]1(C(C)C)OCc2cc(C3CC3)nc(-c3ccc(Oc4ccccc4)cc3)c21 — what was its z-score?
Result block: -0.311

====

# System: Human papillomavirus type 1a protein E7 (residues 44-93)
# ASSAY_REMARKS: small molecules binding HPV E7 44-93 – biochemical, small-molecule microarray, residues 44-93, 635 nm fluorescence, primary screen (AID 1108);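 note: E7 fragment applied at 1 µg/mL in TBST for 1 h at 4 C; score combines spot fluorescence with its signal to noise ratio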
# CONDITION: fluorescence 635 nm, higher = more signal
# composite z-score >= 1 gives YES, anything below gives NO

Query block: Could you verify whether the entry COc1ccc(C#Cc2ccc3c(c2)[C@]2(C(=O)N3)[C@H](c3ccc(OCCO)cc3)N3[C@H](c4ccccc4)[C@H](c4ccccc4)OC(=O)[C@H]3[C@@H]2C(=O)NC[C@H](O)c2ccccc2)cc1 shows composite z-score of no less than 1?
Result block: YES

Query block: Item CCCC=C(CCC)[C@@H](NP(=O)(c1ccccc1)c1ccccc1)c1ccc(-c2ccccc2)cc1 with composite z-score of 1 or above?
Result block: YES

Query block: Assess whether reported composite z-score for CCCN1C(=O)[C@]2(Cc3ccccc31)N=C(c1ccc(OCCCO)cc1)O[C@@H]2c1ccccc1 sits at 1 or higher.
Result block: YES

Query block: Decide: is the reported value of composite z-score for COC(=O)[C@@]1(Cc2ccc(F)cc2)[C@H]2c3cc(C(=O)N4CCCC4)n(CCc4c[nH]c5ccccc45)c3C[C@H]2CN1C(=O)c1ccccc1 equal to or greater than 1?
Result block: YES

Query block: Could you verify whether the entry CC1=C2[C@@H](CCc3ccccc3)OB(O)C[C@@H]2[C@@H]2C(=O)N(Cc3ccccc3)C(=O)[C@@H]2C1 shows composite z-score of no less than 1?
Result block: NO

Query block: Identify whether the reported composite z-score of the following molecule is 1 or greater: COc1ccc([C@H]2OC[C@@H]3C[C@H](Cc4ccccc4)C(=O)N32)cc1
Result block: NO

Query block: hey, is composite z-score for this one >= 1? C[N+](C)(C)CCCCCCNC(=O)[C@@H]1C[C@@H]2C(=O)N3CCC[C@H]3C(=O)N2[C@@H]1c1ccc(O)cc1
Result block: NO

====

# ASSAY_REMARKS: probe aDKK1 binding to arrayed compounds – biochemical, biotinylated probe, 635/667 nm fluorescence, primary screen (AID 1099);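 note: score merges 667nm spot fluorescence with signal to noise across triplicate slides; reference of the scale not given here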
# CONDITION: small-molecule microarray, higher = more signal
Please use Fulfilled whenever composite z-score is not below 0.2, and Not fulfilled whenever it is.

Query block: Quick check, composite z-score >= 0.2? [N-]=[N+]=NCc1ccccc1[C@@H]1OC(c2ccc(OCCCO)cc2)=N[C@]1(CCS(=O)(=O)c1ccccc1)C(=O)O
Result block: Fulfilled

Query block: hey, is composite z-score for this one >= 0.2? CC[C@@H]1O[Si](C(C)C)(C(C)C)c2c1cc(-c1cc(C)c(OC)c(C)c1)nc2-c1ccc(Oc2ccccc2)cc1
Result block: Fulfilled

Query block: I'd appreciate it if you could say whether COCCOC(=O)N1C(=O)[C@@]2(c3cc(C#CC4=CCCCC4)ccc31)[C@H](c1ccccc1OCCO)N1[C@H](c3ccccc3)[C@H](c3ccccc3)OC(=O)[C@H]1[C@@H]2C(=O)N1CCN(c2ncccn2)CC1 has composite z-score at least equal to 0.2.
Result block: Not fulfilled

Query block: Is composite z-score for COc1ccc([Si](C)(C)[C@@H]2[C@@H](CCO)O[C@]3(C(=O)N(Cc4ccccc4)c4ccc(NC(=O)[C@H](C)O)cc43)[C@H]2C)cc1 at or above 0.2?
Result block: Not fulfilled

Query block: Does CCOC(=O)C[C@H]1[C@H](OC(=O)c2ccc(C(=O)c3ccccc3)cc2)[C@@H](NC(=O)C2CCCCC2)c2cc(OCCCO)ccc2N1C(=O)c1ccc2ccccc2n1 have a reported composite z-score of at least 0.2?
Result block: Not fulfilled

Query block: Assess whether reported composite z-score for O=C1[C@H]2C=C(I)[C@H](C[C@@H]2OCCOCCO)[C@@]12CO2 sits at 0.2 or higher.
Result block: Not fulfilled

Query block: Reported composite z-score at or above 0.2? COc1ccc([Si](C)(C)[C@@H]2[C@@H](CC(=O)N3Cc4ccccc4C[C@H]3CO)O[C@]3(C(=O)N(Cc4ccc(N5C(=O)c6cccc7cccc5c67)cc4)c4ccccc43)[C@H]2C)cc1
Result block: Not fulfilled

Query block: Identify whether the reported composite z-score of the following compound is 0.2 or greater: O[C@@H](Cc1ccccc1)[C@@H](/C=C/C1CC1)N(CC#Cc1ccccc1)Cc1ccccc1Br
Result block: Not fulfilled

Query block: Would you say [N-]=[N+]=Nc1ccccc1C[C@]1(C(=O)NCCN2CCOCC2)COC(c2ccc(OCCCO)cc2)=N1 shows composite z-score at minimum 0.2?
Result block: Fulfilled

Query block: Dear colleague, could you confirm whether O=C1C2C=CC(C(O)c3cccc(O)c3)N(Nc3ccc([N+](=O)[O-])cc3)C2C(=O)N1c1ccccc1 (stereo not drawn) has composite z-score at or above 0.2?
Result block: Not fulfilled

Query block: Say whether COC(=O)[C@@]1(Cc2ccc(F)cc2)[C@H]2c3cc(C(=O)N4CCCC4)n(CCc4c[nH]c5ccccc45)c3C[C@H]2CN1C(=O)c1ccccc1 shows composite z-score of 0.2 or more.
Result block: Fulfilled

Query block: Hi, just wondering whether CCCCC(CC)C(O)C1C=CC2C(=O)N(c3ccccc3)C(=O)C2N1Nc1ccc(C#N)cc1 (stereo not drawn) shows composite z-score of 0.2 or higher.
Result block: Fulfilled

Query block: Textbook exercise: given the entry CC(C)N1C(=O)C[C@@](C(=O)O)(c2ccc([N+](=O)[O-])cc2)[C@H]1c1ccc(CO)cc1 , state whether its composite z-score is greater than or equal to 0.2.
Result block: Fulfilled

Query block: Is composite z-score at least 0.2? Consider COc1cc2c(cc1O)C(c1cccs1)N(Cc1cc3c(cc1Br)OCO3)CC2 (stereo not drawn)
Result block: Fulfilled

Query block: Is it the case that COCCOC(=O)N1C(=O)[C@@]2(c3cc(C#CCCO)ccc31)[C@H](C(=O)Nc1nc3ccccc3s1)[C@H]1C(=O)O[C@H](c3ccccc3)[C@H](c3ccccc3)N1[C@@H]2c1ccc(O)cc1 has composite z-score reaching or exceeding 0.2?
Result block: Fulfilled

Query block: Say whether COc1ccc(CCNC(=O)[C@@]2(Sc3ccc(C)cc3)CC(=O)N(Cc3ccccc3C(F)(F)F)[C@@H]2c2ccc(CO)cc2I)cc1 shows composite z-score of 0.2 or more.
Result block: Not fulfilled

Query block: Please indicate if the recorded composite z-score for CO[C@H]1O[C@H](CO)[C@@H](OC(=O)Nc2ccccc2)[C@H](OC(=O)c2cc3ccccc3[nH]2)[C@H]1OC(=O)c1cc2ccccc2[nH]1 meets or exceeds 0.2.
Result block: Fulfilled

Query block: Could you verify whether the entry Cc1ccc(N2C(=O)c3ccccc3[C@@H](C(=O)NCCCN(C)C)[C@@H]2c2ccc(CO)cc2)nc1 shows composite z-score of no less than 0.2?
Result block: Fulfilled

Query block: Exam item: decide whether the reported composite z-score for COCCOC(=O)N1C(=O)[C@@]2(c3cc(C#CC4(O)CCCCCC4)ccc31)[C@H](c1ccc(O)cc1)N1[C@H](c3ccccc3)[C@H](c3ccccc3)OC(=O)[C@H]1[C@@H]2C(=O)N1CCN(c2ncccn2)CC1 is at least 0.2.
Result block: Not fulfilled

Query block: For this compound, is measured composite z-score 0.2 or higher? CCCC1(C(=O)OC)C=C2C(=C(C)C(=O)C2C)CN1 (stereo not drawn)
Result block: Fulfilled

Query block: # bool: composite z-score of CC(CO)N1C(=O)[C@@H]2[C@H]3C(=O)OCC=C[C@H]3OC23C=CCN(Cn2nnc4ccccc42)C(=O)[C@@H]13 (stereo partly drawn) >= 0.2
Result block: Not fulfilled

Query block: Please indicate if the recorded composite z-score for COC(=O)[C@@]1(Cc2ccc(F)cc2)[C@H]2c3cc(C(=O)N(C)C)n(Cc4ccc(OC(F)(F)F)cc4)c3C[C@H]2CN1C(=O)c1ccccc1 meets or exceeds 0.2.
Result block: Not fulfilled

Query block: Confirm if composite z-score reported for the compound O=C1C[C@]2(c3ccc([N+](=O)[O-])cc3)C(=O)N(C3CC3)c3cc(CO)ccc3[C@H]2N1CC12CC3CC(CC(C3)C1)C2 is 0.2 or above.
Result block: Not fulfilled

Query block: Answer whether composite z-score of OCCCC1=CC(c2ccc(CN3CCCC3)cc2)N(Cc2cc3c(cc2Br)OCO3)CC1 (stereo not drawn) is greater than or equal to 0.2.
Result block: Not fulfilled

Query block: Reported composite z-score reaches at least 0.2 for COc1ccc(C#Cc2ccc3c(c2)[C@]2(C(=O)N3)[C@H](c3ccc(O)cc3)N3[C@H](c4ccccc4)[C@H](c4ccccc4)OC(=O)[C@H]3[C@@H]2C(=O)Nc2nc3ccccc3s2)cc1 ?
Result block: Fulfilled

Query block: hey, is composite z-score for this one >= 0.2? NCCCCCCNC(=O)[C@@H]1C[C@@H]2C(=O)N[C@@H](CCCCN)C(=O)N2[C@@H]1c1ccc(O)cc1
Result block: Not fulfilled

Query block: Does the compound C=C(COC)C(=O)CC[C@@H](OC(C)=O)c1cccc(OCCO)c1 have recorded composite z-score that is 0.2 or more?
Result block: Not fulfilled

Query block: Decide: composite z-score of Cc1cc(C)c(C(O)C2C=CC3C(=O)N(c4ccccc4)C(=O)C3N2Nc2ccccc2F)c(C)c1 (stereo not drawn) >= 0.2?
Result block: Not fulfilled
